Biological target: Proteinase-activated receptor 1 (Homo sapiens) (UniProt P25116)
Experiment: Reversible inhibition of PAR1 in human EAhy926 cells assessed as reduction in TFLLRN-NH2-induced intracellular calcium mobilization at 10 uM incubated for 15 mins and washed in buffer followed by TFLLRN-NH2 addition by Fluo-4-AM dye based fluorescence assay relative to control
Format: functional, cell-based
Activity calls are given as the source filed them. The calls are words filed in the database; no cut-off is given here.
Thanks in advance; please answer with one of these: TRUE = active, FALSE = inactive

Worked examples, 5 molecules total:
{"substance-smiles": "O=C(CC(F)(F)F)Nc1cccc(NC(=O)c2ccccc2Br)c1", "discrete-label": "TRUE"}
{"substance-smiles": "CCCC(=O)Nc1cccc(NC(=O)c2ccccc2Br)c1", "discrete-label": "TRUE"}
{"substance-smiles": "O=C(Nc1cccc(NC(=O)c2ccccc2Br)c1)c1cnco1", "discrete-label": "TRUE"}
{"substance-smiles": "O=C(Nc1cccc(NC(=O)c2ccccc2Br)c1)c1ccco1", "discrete-label": "TRUE"}
{"substance-smiles": "CCCCNc1cccc(NC(=O)c2ccccc2Br)c1", "discrete-label": "TRUE"}

*Q* Which result was noted for this molecule in the test: `O=C(Nc1cccc(NC(=O)c2ccccc2Br)c1)c1cocn1`
*A* TRUE

*Q* Which result was noted for this molecule in the test: `CCOC(=O)N[C@@H]1CC[C@@H]2[C@@H](C1)C[C@H]1C(=O)O[C@H](C)[C@H]1[C@H]2/C=C/c1ccc(-c2cccc(F)c2)cn1`
*A* FALSE

====

Test: Stability in human microsomes for 1 hr
Assay type: ADME, Microsome
Settings: read-out: Stability
Listed compounds paired with reported remaining at 1 h
Remember to quote the unit after the number.

{"substance-smiles": "O=C(Nc1cccc(NC(=O)c2ccccc2Br)c1)c1cnco1", "reported-property": "remaining at 1 h", "result": "99%"}

Attention now shifts to the item below.
*Q* Determine from records and report remaining at 1 h for `CCCC(=O)Nc1cccc(NC(=O)c2ccccc2Br)c1`
*A* 99%

====

Biological target: Proteinase-activated receptor 1 (Homo sapiens) (UniProt P25116)
Sequence (whole entry): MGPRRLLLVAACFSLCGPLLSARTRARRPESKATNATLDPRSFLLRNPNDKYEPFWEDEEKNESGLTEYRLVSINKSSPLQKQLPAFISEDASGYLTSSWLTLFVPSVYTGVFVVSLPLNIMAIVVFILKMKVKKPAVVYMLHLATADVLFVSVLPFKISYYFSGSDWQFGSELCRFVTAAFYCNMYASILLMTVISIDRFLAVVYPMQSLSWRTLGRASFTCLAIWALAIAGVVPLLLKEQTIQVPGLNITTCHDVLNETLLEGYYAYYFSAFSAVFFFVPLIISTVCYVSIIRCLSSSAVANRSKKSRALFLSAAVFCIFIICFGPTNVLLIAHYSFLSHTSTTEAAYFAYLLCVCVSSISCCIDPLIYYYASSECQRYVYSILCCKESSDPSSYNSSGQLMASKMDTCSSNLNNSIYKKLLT
Assay: Negative allosteric modulation of PAR1 in human EAhy926 cells assessed as reduction in TFLLRN-NH2-induced intracellular calcium mobilization at 10 uM incubated for 15 mins followed by TFLLRN-NH2 addition by Fluo-4-AM dye based fluorescence assay relative to control
Type: functional, cell-based
Binary call on inhibition: criterion met from 40% upward, criterion not met beneath that.

*Q* Is the recorded value of inhibition equal to or greater than 40% for this molecule? `O=C(O)CC(=O)Nc1cccc(NC(=O)c2ccccc2Br)c1`
*A* criterion not met

*Q* Is the recorded value of inhibition equal to or greater than 40% for this molecule? `O=C(Nc1cccc(NC(=O)c2ccccc2Br)c1)c1cnco1`
*A* criterion met

*Q* Is the recorded value of inhibition equal to or greater than 40% for this molecule? `O=C(Nc1cccc(NC(=O)[C@H]2CCCN2)c1)c1ccccc1Br`
*A* criterion met

*Q* Is the recorded value of inhibition equal to or greater than 40% for this molecule? O=C(Nc1cccc(NC(=O)C2CCCO2)c1)c1ccccc1Br (centres undefined)
*A* criterion met

*Q* Is the recorded value of inhibition equal to or greater than 40% for this molecule? `CCOC(=O)Nc1cccc(NC(=O)c2ccccc2Br)c1`
*A* criterion met

*Q* Is the recorded value of inhibition equal to or greater than 40% for this molecule? `O=C(Nc1cccc(NC(=O)c2ccccc2Br)c1)c1ccccc1`
*A* criterion met

*Q* Is the recorded value of inhibition equal to or greater than 40% for this molecule? `CCCCNc1cccc(NC(=O)c2ccccc2Br)c1`
*A* criterion met

*Q* Is the recorded value of inhibition equal to or greater than 40% for this molecule? `NC(=O)CC(=O)Nc1cccc(NC(=O)c2ccccc2Br)c1`
*A* criterion not met

*Q* Is the recorded value of inhibition equal to or greater than 40% for this molecule? CCC(O)C(=O)Nc1cccc(NC(=O)c2ccccc2Br)c1 (centres undefined)
*A* criterion not met

*Q* Is the recorded value of inhibition equal to or greater than 40% for this molecule? `CC(C)[C@@H](O)C(=O)Nc1cccc(NC(=O)c2ccccc2Br)c1`
*A* criterion not met

====

Listed compounds paired with reported inhibition
Target: Proteinase-activated receptor 1 (Homo sapiens) (UniProt P25116)
Assay: Negative allosteric modulation of PAR1 in human EAhy926 cells assessed as reduction in TFLLRN-NH2-induced intracellular calcium mobilization at 10 uM incubated for 15 mins followed by TFLLRN-NH2 addition by Fluo-4-AM dye based fluorescence assay relative to control
Type: functional, cell-based
Answer format: numeric, % implied, no suffix.

Some entries whose results are on file:
{"compound": "CCCNCc1cccc(NC(=O)c2ccccc2Br)c1", "result-unit": "%", "inhibition": 17}
{"compound": "CCCCC(=O)Nc1cccc(NC(=O)c2ccccc2Br)c1", "result-unit": "%", "inhibition": 23}
{"compound": "COCC(=O)Nc1cccc(NC(=O)c2ccccc2Br)c1", "result-unit": "%", "inhibition": 38}
{"compound": "O=C(Nc1cccc(NC(=O)c2ccccc2Br)c1)c1ccco1", "result-unit": "%", "inhibition": 92}
{"compound": "COCCNc1cccc(NC(=O)c2ccccc2Br)c1", "result-unit": "%", "inhibition": 43}

Attention now shifts to the item below.
*Q* Determine from records and report inhibition for COC(C)C(=O)Nc1cccc(NC(=O)c2ccccc2Br)c1 (stereo not given)
*A* 58

====

Target: Proteinase-activated receptor 1 (Homo sapiens)
Assay: Negative allosteric modulation of PAR1 in human EAhy926 cells assessed as reduction in TFLLRN-NH2-induced intracellular calcium mobilization at 10 uM incubated for 15 mins followed by TFLLRN-NH2 addition by Fluo-4-AM dye based fluorescence assay relative to control
Type: functional, cell-based
Listed molecules paired with reported inhibition
Answer format: numeric, % implied, no suffix.

{"molecule": "COCCC(=O)Nc1cccc(NC(=O)c2ccccc2Br)c1", "inhibition / %": 39}

*Q* Determine from records and report inhibition for `CC(C)(C)OC(=O)N1CCC[C@@H]1C(=O)Nc1cccc(NC(=O)c2ccccc2Br)c1`
*A* 65

*Q* Determine from records and report inhibition for `COC(=O)CC(=O)Nc1cccc(NC(=O)c2ccccc2Br)c1`
*A* 11

*Q* Determine from records and report inhibition for `COC(=O)Nc1cccc(NC(=O)c2ccccc2Br)c1`
*A* 42

*Q* Determine from records and report inhibition for `CC(C)[C@H](O)C(=O)Nc1cccc(NC(=O)c2ccccc2Br)c1`
*A* 48

*Q* Determine from records and report inhibition for `CCC(=O)Nc1cccc(NC(=O)c2ccccc2Br)c1`
*A* 54

====

Target: Proteinase-activated receptor 1 (Homo sapiens) (UniProt P25116)
Test: Negative allosteric modulation of PAR1 in human EAhy926 cells assessed as reduction in TFLLRN-NH2-induced intracellular calcium mobilization at 10 uM incubated for 15 mins followed by TFLLRN-NH2 addition by Fluo-4-AM dye based fluorescence assay relative to control
Format: functional, cell-based
Listed molecules paired with reported inhibition
Answer format: numeric, % implied, no suffix.

{"substance-smiles": "CN(C)CC(=O)Nc1cccc(NC(=O)c2ccccc2Br)c1", "result-unit": "%", "inhibition": 3}
{"substance-smiles": "O=C(Nc1cccc(NC(=O)[C@@H]2CCCN2)c1)c1ccccc1Br", "result-unit": "%", "inhibition": 4}
{"substance-smiles": "CCCN(CCC)c1cccc(NC(=O)c2ccccc2Br)c1", "result-unit": "%", "inhibition": 13}

Attention now shifts to the item below.
*Q* Determine from records and report inhibition for `O=C(CC(F)(F)F)Nc1cccc(NC(=O)c2ccccc2Br)c1`
*A* 88

====

Molecular target: Proteinase-activated receptor 1 (Homo sapiens)
Assay: Negative allosteric modulation of PAR1 in human EAhy926 cells assessed as reduction in TFLLRN-NH2-induced intracellular calcium mobilization at 10 uM incubated for 15 mins followed by TFLLRN-NH2 addition by Fluo-4-AM dye based fluorescence assay relative to control
Assay type: functional, cell-based
Binary call on inhibition: Y from 60% upward, N beneath that.

Worked examples, 3 compounds total:
{"compound": "CCC(C)C(=O)Nc1cccc(NC(=O)c2ccccc2Br)c1 (stereo not drawn)", "discrete-label": "N"}
{"compound": "CC(C)(C)OC(=O)N1CCC[C@H]1C(=O)Nc1cccc(NC(=O)c2ccccc2Br)c1", "discrete-label": "N"}
{"compound": "CCCNC(=O)c1cccc(NC(=O)c2ccccc2Br)c1", "discrete-label": "Y"}

*Q* Is the recorded value of inhibition equal to or greater than 60% for this compound? O=C(Nc1cccc(NC(=O)C2CCOC2)c1)c1ccccc1Br (stereo not drawn)
*A* N

*Q* Is the recorded value of inhibition equal to or greater than 60% for this compound? `CCCCOc1cccc(NC(=O)c2ccccc2Br)c1`
*A* N
